Consider the following sequences; for each one, report its PBM binding z-score.
system: PPARg:RXRa (NR concentration 180 nM, RXRa partner concentration 90 nM); assay: PBM binding z-score (relative to random genomic background probes); higher = stronger binding; sequences stand for … in GC…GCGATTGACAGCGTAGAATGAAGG
Enter the number alone.

Record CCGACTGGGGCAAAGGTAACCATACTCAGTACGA , field PBM binding z-score: 8.83

Record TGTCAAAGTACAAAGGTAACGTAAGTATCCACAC , field PBM binding z-score: 3.64

Record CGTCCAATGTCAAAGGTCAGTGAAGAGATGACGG , field PBM binding z-score: 6.67

Record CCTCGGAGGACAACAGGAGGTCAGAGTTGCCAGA , field PBM binding z-score: 0.634

Record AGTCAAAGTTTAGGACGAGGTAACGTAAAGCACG , field PBM binding z-score: 0.904

Record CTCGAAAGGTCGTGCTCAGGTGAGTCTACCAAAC , field PBM binding z-score: 2.04

Record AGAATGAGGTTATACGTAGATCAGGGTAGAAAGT , field PBM binding z-score: 2.08

Record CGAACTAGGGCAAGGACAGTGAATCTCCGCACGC , field PBM binding z-score: 2.96

Record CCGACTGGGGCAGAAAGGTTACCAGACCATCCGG , field PBM binding z-score: 1.47

Record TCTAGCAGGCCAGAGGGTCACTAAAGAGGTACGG , field PBM binding z-score: 1.48

Record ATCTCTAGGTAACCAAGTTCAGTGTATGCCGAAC , field PBM binding z-score: 0.577

Record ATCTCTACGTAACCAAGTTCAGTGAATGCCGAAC , field PBM binding z-score: 0.223

Record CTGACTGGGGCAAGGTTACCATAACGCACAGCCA , field PBM binding z-score: 4.03

Record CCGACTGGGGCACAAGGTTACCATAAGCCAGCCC , field PBM binding z-score: 2.92

Record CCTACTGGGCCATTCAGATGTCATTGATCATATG , field PBM binding z-score: 0.6

Record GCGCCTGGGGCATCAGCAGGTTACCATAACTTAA , field PBM binding z-score: 0.0238

Record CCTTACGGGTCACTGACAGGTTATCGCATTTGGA , field PBM binding z-score: 4.53

Record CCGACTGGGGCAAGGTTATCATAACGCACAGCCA , field PBM binding z-score: 2.69

Record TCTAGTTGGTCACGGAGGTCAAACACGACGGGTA , field PBM binding z-score: 3.25

Record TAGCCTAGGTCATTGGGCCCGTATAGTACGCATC , field PBM binding z-score: 2.27

Record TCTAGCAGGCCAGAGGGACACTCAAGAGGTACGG , field PBM binding z-score: 0.823

Record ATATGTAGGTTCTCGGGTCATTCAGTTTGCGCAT , field PBM binding z-score: 3.39

Record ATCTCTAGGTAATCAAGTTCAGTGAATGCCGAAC , field PBM binding z-score: 0.317

Record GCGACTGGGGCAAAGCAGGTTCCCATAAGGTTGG , field PBM binding z-score: 0.609

Record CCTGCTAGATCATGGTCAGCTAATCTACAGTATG , field PBM binding z-score: 0.0409

Record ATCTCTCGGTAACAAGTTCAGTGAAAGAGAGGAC , field PBM binding z-score: 0.157

Taken from the supplement of paper PMC6555819.
